// values below are reported amyloid nucleation score
- assay: amyloid nucleation score (Sup35N fusion, yeast selection) (log enrichment); library NNK2; higher = more nucleation; inactive = no reads after selection;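 further: zero at mode of non-aggregating sequences after 7 days selection at 30°C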
measured_metric: amyloid nucleation score

RSAWYTG; -0.203
SRLISFLRSRQDDSQISLGW; -0.445
EITEDSMVLVRWSGARNFHM; 2.56
VKLVCSDFKMACTSSSMSVD; 0.861
DIVRSYV; -0.27

----------
- assay: amyloid nucleation score (Sup35N fusion, yeast selection) (log enrichment); library NNK1; higher = more nucleation; inactive = no reads after selection
Label yes when amyloid nucleation score >= 0.3; otherwise no.

TAWSSHPEV; no
DKVMGRTQLTTCQYATGRCR; yes
ASAFVRVMNV; yes
MLIFHTCA; yes
LICAAAKLIHGWGNKWIYVT; no
GRSAVAFISPPLSLRIAQCP; no
GSHNAR; no
TLPTKTTPSAFAVNEVTFLT; no
SVLYRINP; no
VDHVGGWVYWYGTRCTFVDG; no
YREGHHPGWTMVKMMRTQVP; no
DYDIWDAMPAQFQRITMYSV; no
GQEVHISIVNVLQFEYNRYD; yes
HPYIWSVPDYKPFRAQAARV; no
LSGWRYMVKA; no
GSVCHILVGWVAYMWVF; no
SLPSNHTVLWTVWMMVFGAR; no
ILYVVWFYVLLRWVRVLLLR; yes
ISTFLRFSQSDEQYYPTE; yes
HMWIEFSAVLFSYDMASSNV; no
GMAVFV; no
RYFCAIWLGCGERRSRVSKW; yes
LNNYCCYIAKYVYWW; yes
LALVRVIGDKNRWWRILSVW; yes
